molecular target: activated p38 (Homo sapiens, UniProt Q16539); construct: amplify the coding region of CSBP2 cDNA using a HeLa cell library; assay: p38 inhibition assay: inhibition of phosphorylation of EGF receptor peptide; details: activated p38 5 nM, EGF receptor peptide 200 μM, ATP 100 μM, 30° C, 30 minutes
Sequence (Q16539 whole entry): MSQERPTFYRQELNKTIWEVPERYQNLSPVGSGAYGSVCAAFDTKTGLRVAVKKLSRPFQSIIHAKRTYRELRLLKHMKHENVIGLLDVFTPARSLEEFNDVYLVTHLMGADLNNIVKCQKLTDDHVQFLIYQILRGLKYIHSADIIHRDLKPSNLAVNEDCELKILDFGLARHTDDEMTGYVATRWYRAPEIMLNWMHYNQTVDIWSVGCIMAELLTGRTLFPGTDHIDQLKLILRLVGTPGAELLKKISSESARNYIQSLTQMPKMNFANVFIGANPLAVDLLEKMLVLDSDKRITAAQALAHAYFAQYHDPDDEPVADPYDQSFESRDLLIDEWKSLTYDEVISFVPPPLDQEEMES
pIC50: −log10 of the molar value.
reportedMetric: pIC50

| compound | valueMeasured |
| --- | --- |
| O=C(c1ccc(N(C(=O)c2sc3ccccc3c2Cl)c2c(F)cccc2F)nc1)c1sccc1-n1cccc1 | ≥ 6.00 |
| O=C(c1ccc(Nc2c(F)cccc2F)nc1)c1ccc2ccccc2c1 | ≥ 6.00 |
| CC(C)CC(=O)c1ccc(Nc2c(F)cccc2F)nc1 | ≥ 6.00 |
| Cc1cccc(C(=O)c2ccc(N(C(=O)c3ccc(Br)cc3)c3c(F)cccc3F)nc2)c1 | ≤ 5.00 |
| Fc1cccc(F)c1Nc1ccc(Sc2ccccc2)cn1 | ≥ 6.00 |
| CC(Oc1ccccc1)C(=O)N(c1ccc(C(=O)c2sccc2-n2cccc2)cn1)c1c(F)cccc1F (stereo not drawn) | ≥ 6.00 |
| Cc1cccc(C(=O)c2ccc(Nc3c(F)cccc3F)nc2)c1 | ≥ 6.00 |
| CC(C)(C)c1ccc(C(=O)c2ccc(Nc3c(F)cccc3F)nc2)cc1 | ≥ 6.00 |
| O=C(c1ccc(Nc2c(F)cccc2F)nc1)c1cc2ccccc2s1 | 5.00 to 6.00 |
| Cc1cccc(C(=O)c2ccc(N(C(=O)CC(C)C)c3c(F)cccc3F)nc2)c1 | ≥ 6.00 |
| O=C(c1ccc(Nc2c(F)cccc2F)nc1)c1sccc1-n1cccc1 | ≥ 6.00 |
| O=C(c1ccc(Cl)cc1)c1ccc(Nc2c(F)cccc2F)nc1 | ≥ 6.00 |
| O=C(c1ccc(Nc2c(F)cccc2F)nc1)c1ccc(Cl)c(Cl)c1 | ≤ 5.00 |
| CCOC(=O)C(=O)N(c1ccc(C(=O)c2ccc(Cl)c(C)c2)cn1)c1c(F)cccc1F | 5.00 to 6.00 |
| Cc1cccc(C(=O)c2ccc(N(C(=O)C(C)(C)C)c3c(F)cccc3F)nc2)c1 | ≥ 6.00 |
| COc1cc(C(=O)c2ccc(Nc3c(F)cccc3F)nc2)cc(OC)c1OC | 5.00 to 6.00 |
| CCCCc1ccc(Nc2c(F)cccc2F)nc1 | ≤ 5.00 |
| COC(=O)CCC(=O)N(c1ccc(C(=O)c2sccc2-n2cccc2)cn1)c1c(F)cccc1F | 5.00 to 6.00 |

###

biological target: activated p38 (Homo sapiens, UniProt Q16539); construct: amplify the coding region of CSBP2 cDNA using a HeLa cell library; assay: p38 inhibition assay: inhibition of ATPase activity; details: ATPase activity of activated p38 (60 nM), various ATP concentrations
pKi: −log10 of the molar value.

| molecularString | testTarget | pKi |
| --- | --- | --- |
| O=C(c1ccc(N(C(=O)CCc2ccccc2)c2c(F)cccc2F)nc1)c1ccccc1Cl | activated p38 (Homo sapiens, UniProt Q16539) | 5.00 to 6.00 |
| O=C(c1ccccc1)c1ccc(N(C(=O)CCc2ccccc2)c2c(F)cccc2F)nc1 | activated p38 (Homo sapiens, UniProt Q16539) | 5.00 to 6.00 |
| O=C(c1ccc(N(C(=O)Cc2ccc(F)cc2)c2c(F)cccc2F)nc1)c1ccccc1Cl | activated p38 (Homo sapiens, UniProt Q16539) | 5.00 to 6.00 |
